target: human A1 receptor (Homo sapiens (Human), UniProt P30542); experiment: A1 competition binding assay using Scintillation Proximity technology; selectivity = A1 binding Ki / A2a binding Ki; details: A1 binding Ki divided by A2a binding Ki
Sequence (P30542 whole entry): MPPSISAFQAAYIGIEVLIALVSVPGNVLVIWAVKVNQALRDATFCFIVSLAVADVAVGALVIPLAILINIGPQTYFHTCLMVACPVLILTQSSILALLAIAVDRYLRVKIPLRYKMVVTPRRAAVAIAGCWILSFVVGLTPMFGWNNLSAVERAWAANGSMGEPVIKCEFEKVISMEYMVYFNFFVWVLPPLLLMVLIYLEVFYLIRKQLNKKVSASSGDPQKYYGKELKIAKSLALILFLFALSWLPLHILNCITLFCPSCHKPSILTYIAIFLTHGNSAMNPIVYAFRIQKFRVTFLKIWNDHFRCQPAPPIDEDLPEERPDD
parameter: A2a selectivity (A2a A1 binding selectivity)

                            chemical_smiles  observed_result
0  N#Cc1ccc(OCc2cccc(CNC(=O)c3nc(N)nc4c(F)cccc34)n2)cc1               36
1  COc1cccc2c(C(=O)NCc3cccc(COc4ccc(F)cc4)n3)nc(N)nc12              230
2   Nc1nc(C(=O)NCc2cccc(CO)n2)c2cccc(F)c2n1               67
3  Nc1nc(C(=O)NCc2cccc(Cc3ccc(F)c(F)c3)n2)c2cccc(F)c2n1               33
4  COc1cccc2c(C(=O)NCc3cccc(C4CC4)n3)nc(N)nc12              169
5  Cc1ccc(F)c(CNC(=O)c2nc(N)nc3c(-c4ncco4)cccc23)n1              133
6  COc1cccc2c(C(=O)NCc3cccc(COC4CCCC4)n3)nc(N)nc12              447
